- Species: Rattus norvegicus
- procedureText: Displacement of [3H]Muscimol from GABAA alpha-1-alpha-5 receptor in Sprague-Dawley rat brain cortex membrane
Documented logIC50 across a set of compounds
Hey, just send me the number, nothing else.

# annotated cases, reported logIC50 shown
1. NCc1nnc(O)o1 0.139
2. NCCc1nnc(O)o1 0.971
3. Cl.Sc1nnc(C2CCNCC2)o1 1.67
4. Cc1nnc(C2CCNCC2)o1 2.04
5. NCc1nnc(S)o1 1.76

Now, please, on to the next compound.
stdin: # return recorded logIC50 for entry Oc1nnc(C2CCNCC2)o1
stdout: 2.26

---

- assayedSystem: Gamma-aminobutyric acid receptor subunit alpha-3 (Rattus norvegicus, UniProt P18508+P20236+P63079)
- Sequence (P20236 whole entry, one chain of several): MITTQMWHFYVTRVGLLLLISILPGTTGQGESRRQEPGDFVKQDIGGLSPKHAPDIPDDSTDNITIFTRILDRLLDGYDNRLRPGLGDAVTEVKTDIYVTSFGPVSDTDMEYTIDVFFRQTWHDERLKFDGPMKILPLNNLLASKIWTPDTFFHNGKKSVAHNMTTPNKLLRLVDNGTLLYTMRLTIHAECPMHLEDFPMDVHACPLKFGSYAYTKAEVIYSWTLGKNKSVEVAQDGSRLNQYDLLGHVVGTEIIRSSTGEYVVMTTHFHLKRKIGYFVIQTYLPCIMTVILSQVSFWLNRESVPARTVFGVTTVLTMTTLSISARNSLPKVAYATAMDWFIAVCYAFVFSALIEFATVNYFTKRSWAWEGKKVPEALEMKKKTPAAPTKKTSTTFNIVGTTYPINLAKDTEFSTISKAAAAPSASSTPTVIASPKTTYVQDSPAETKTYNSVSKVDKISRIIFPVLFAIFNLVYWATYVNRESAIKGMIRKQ
- procedureText: Agonist activity at rat recombinant GABAA alpha-3-beta-3-gamma-2 receptor expressed in HEK293 cells assessed as normalization of GABA-induced current by whole cell patch-clamp technique
measureName: EC50
# answer = value followed by unit

stdin: Given NCc1nnc(O)o1 , respond with its EC50.
stdout: 2300 µM
